assayMethodText: Human HepG2 cell viability assay in 384 well format
Assay type: toxicity, cell-based
Set-up: dose 125 nL, time 70.5 hour; concentration not given beside the values
condition: HepG2 cells, read-out: Inhibition
Provide the recorded cytotoxicity at 70.5 h for the entries that follow.
Hi! Could you send only the number? It should be in %, unit omitted.

Problem: Entry C=C(C)CN(CC)C(=O)CN1CCCC1C(=O)N(C)C (configuration not stated) : reported cytotoxicity at 70.5 h = ?
Solution: -4.6

Problem: Entry Cc1nnc([C@H]2C[C@H]3OCC[C@H]3N(S(=O)(=O)N(C)C)C2)o1 : reported cytotoxicity at 70.5 h = ?
Solution: -3.65

Problem: Entry COCCN(C)C(C(=O)O)c1ccc2ccccc2c1 (configuration not stated) : reported cytotoxicity at 70.5 h = ?
Solution: 6.21

Problem: Entry COCCN1CCC2(CCCN(C(=O)c3cncn3C)C2)CC1 : reported cytotoxicity at 70.5 h = ?
Solution: -3.6

Problem: Entry CCNC(=O)N1CCC(NC(=O)NCCc2cc(F)cc(F)c2)C1 (configuration not stated) : reported cytotoxicity at 70.5 h = ?
Solution: 1.55

Problem: Entry COc1ccccc1C1(CNc2nnc(C)c(C)c2C#N)CCCC1 : reported cytotoxicity at 70.5 h = ?
Solution: 2.69

Problem: Entry CN1CCc2[nH]cnc2C12CCN(Cc1ccc(S(C)(=O)=O)cc1)CC2 : reported cytotoxicity at 70.5 h = ?
Solution: -7.39

Problem: Entry O=C(c1cnc(-c2ccccc2)nc1)N1CCOC2(CCCC2)C1 : reported cytotoxicity at 70.5 h = ?
Solution: -8.9

Problem: Entry CC(=O)N1CCC[C@@H](NCc2cccc(F)c2)[C@@H]1c1ccc(C)s1 : reported cytotoxicity at 70.5 h = ?
Solution: -6.03

Problem: Entry O=C(NCCO)C1(Cc2ccccc2-c2cccnc2)CCOCC1 : reported cytotoxicity at 70.5 h = ?
Solution: -10.7

Problem: Entry O=C(NCc1csc(Br)c1)N1CCOCC1 : reported cytotoxicity at 70.5 h = ?
Solution: -4.76

Problem: Entry Cc1ccccc1C(=O)N1CCOC2(CNCCOC2)C1 (configuration not stated) : reported cytotoxicity at 70.5 h = ?
Solution: -4.46

Problem: Entry CC(C)c1nccn1-c1cccc(C2CCCN2S(=O)(=O)N(C)C)n1 (configuration not stated) : reported cytotoxicity at 70.5 h = ?
Solution: 0.791

Problem: Entry CC(C)c1n[nH]c(C2CN(Cc3nnc(C4CC4)o3)CCO2)n1 (configuration not stated) : reported cytotoxicity at 70.5 h = ?
Solution: 24.8

Problem: Entry Cc1cc(O)nc(C2CCCN(CCO)C2)n1 (configuration not stated) : reported cytotoxicity at 70.5 h = ?
Solution: -1.84

Problem: Entry CCn1nc(CNC(C)(C)CO)c(-c2ccccc2)n1 : reported cytotoxicity at 70.5 h = ?
Solution: -1.62

Problem: Entry COc1ccc(F)cc1C[S+]([O-])CC(=O)NCc1ccccc1 (configuration not stated) : reported cytotoxicity at 70.5 h = ?
Solution: -4.53

Problem: Entry Cc1ccnn1CC(=O)N(C)Cc1cnn(-c2ccccc2)c1 : reported cytotoxicity at 70.5 h = ?
Solution: -1.98

Problem: Entry CCN(CC)CC(=O)N1CCCCC1c1nc(C)cs1 (configuration not stated) : reported cytotoxicity at 70.5 h = ?
Solution: -2.06

Problem: Entry Cc1nn(C)c(C)c1C1CCCN1CCCC#N (configuration not stated) : reported cytotoxicity at 70.5 h = ?
Solution: -4.71

Problem: Entry CCC(NC(=O)CCCNC(=O)OC)c1cc(F)ccc1F (configuration not stated) : reported cytotoxicity at 70.5 h = ?
Solution: -3.13

Problem: Entry O=C([C@H]1C[C@H]2OCC[C@H]2N(Cc2ccccn2)C1)N1CCCCO1 : reported cytotoxicity at 70.5 h = ?
Solution: -9.44

Problem: Entry CCc1c(C)nn(C)c1NC(=O)N1CCCOC(Cn2cccn2)C1 (configuration not stated) : reported cytotoxicity at 70.5 h = ?
Solution: -4.64

Problem: Entry CCNC(=O)NC(=O)CN1CCCC1c1nc(C2CCCCC2)co1 (configuration not stated) : reported cytotoxicity at 70.5 h = ?
Solution: -7.64

Problem: Entry Fc1ccc(C(NCc2nnc(-c3ccco3)o2)C2CCC2)cc1 (configuration not stated) : reported cytotoxicity at 70.5 h = ?
Solution: -12

Problem: Entry O=C(c1ccc(Sc2ccccn2)cc1)N1CCCSCC1 : reported cytotoxicity at 70.5 h = ?
Solution: -10.8

Problem: Entry CN(C)c1cc(C2CCCN(S(=O)(=O)C3CCCC3)C2)ccn1 (configuration not stated) : reported cytotoxicity at 70.5 h = ?
Solution: -7.46

Problem: Entry Cc1noc(C)c1C1CCCN1C(=O)c1cn2ccsc2n1 (configuration not stated) : reported cytotoxicity at 70.5 h = ?
Solution: -3.13

Problem: Entry CCOc1ccc(C(=O)NS(=O)(=O)c2cncc(Br)c2)cc1OC : reported cytotoxicity at 70.5 h = ?
Solution: 18.9

Problem: Entry CCOc1ccc(S(=O)(=O)C(C)C(=O)Nc2cc(C)no2)cc1 (configuration not stated) : reported cytotoxicity at 70.5 h = ?
Solution: -4.64

Problem: Entry CCOCc1cncc2c1CCN(S(=O)(=O)c1cccc(C)c1)C2 : reported cytotoxicity at 70.5 h = ?
Solution: -4.1

Problem: Entry CCN1CCC(CNC(=O)C2(c3cccc(C)c3)CCCCC2)CC1 : reported cytotoxicity at 70.5 h = ?
Solution: 1.1

Problem: Entry CNC(=O)CN(C)C(=O)c1ccc(-c2nc(C)cs2)cc1 : reported cytotoxicity at 70.5 h = ?
Solution: -5.78

Problem: Entry CN(Cc1noc(-c2ccccc2)n1)C(=O)CSc1nnc(N)s1 : reported cytotoxicity at 70.5 h = ?
Solution: 14.3

Problem: Entry CCc1cnc(C)nc1NCC(O)CN1CCCCCC1 (configuration not stated) : reported cytotoxicity at 70.5 h = ?
Solution: -4.26

Problem: Entry CN(C)CC(=O)N1CC2(CCN(S(=O)(=O)c3ccccc3)C2)C1 : reported cytotoxicity at 70.5 h = ?
Solution: -6.71

Problem: Entry CN(CC(=O)NC1(C)CCS(=O)(=O)C1)Cc1ccc(F)c(F)c1 (configuration not stated) : reported cytotoxicity at 70.5 h = ?
Solution: 3.42

Problem: Entry CCN(CCc1nccs1)C(=O)c1ncoc1C : reported cytotoxicity at 70.5 h = ?
Solution: -13.2

Problem: Entry COc1cc2c(nn1)CCN(Cc1nc(Cc3ccccc3)no1)C2 : reported cytotoxicity at 70.5 h = ?
Solution: 2.14

Problem: Entry Cc1cccnc1NC(=O)c1ccc(F)c(S(=O)(=O)N2CCC2)c1 : reported cytotoxicity at 70.5 h = ?
Solution: -19.3

Problem: Entry CN1CCC(c2nc3ccc(-c4ccccc4)cn3n2)CC1 : reported cytotoxicity at 70.5 h = ?
Solution: -3.45

Problem: Entry O=S(=O)(Nc1cnn(C2CCOCC2)c1)c1c(F)cccc1F : reported cytotoxicity at 70.5 h = ?
Solution: -1.01

Problem: Entry Cc1nc(CN2CCO[C@@H]3CC(COc4ccccn4)C[C@H]32)cs1 (some centres not stated) : reported cytotoxicity at 70.5 h = ?
Solution: -1.88

Problem: Entry Cc1ccc(C(=O)O)cc1S(=O)(=O)N(CC(C)O)c1ccccc1 (configuration not stated) : reported cytotoxicity at 70.5 h = ?
Solution: -16.2

Problem: Entry Cc1oc(C(=O)Nc2ccccc2F)cc1S(N)(=O)=O : reported cytotoxicity at 70.5 h = ?
Solution: -10.9

Problem: Entry COCCN1CC(C(=O)Nc2ccc3c(c2)CCC(=O)N3C)CC1=O (configuration not stated) : reported cytotoxicity at 70.5 h = ?
Solution: 0.117

Problem: Entry CCC(CNS(=O)(=O)c1cccc(C(=O)OC)c1)N1CCCC1 (configuration not stated) : reported cytotoxicity at 70.5 h = ?
Solution: -10.7
